Every entry's value here was drawn from PubChem BioAssay AID1159580.

- Procedure Summary: chemical genetic growth profiling, strain panel (AID 1159580);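 also: tested at 20 µM; growth read once vehicle control cultures reached saturation at 30 °C; 1 = growth at the plate median or of vehicle wells; lower values mean less growth of the strain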
- Test Settings: S. cerevisiae deletion strains, growth OD, locus YBR021W, strain FUR4, active compounds read low
About 2,000 (36%) of roughly 5,500 compounds were called active. Not shown: some 18% with an inconclusive outcome. Some of the results follow.
Metric: normalized growth

Molecule	Value Reported
COc1cccc2c1CCC1CC(=O)CCC21C (stereo not given)	0.92
COc1cc(O)c(C(=O)c2ccccc2)cc1O	1.07
C[C@@H]1O[C@@H](O[C@H]2[C@@H](Oc3cc(O)c4c(c3)O[C@H](c3ccc(O)cc3)CC4=O)O[C@H](CO)[C@@H](O)[C@@H]2O)[C@H](O)[C@H](O)[C@H]1O	1.02
COc1ccc(C(=O)c2ccccc2)c(O)c1	0.975
O=C(O)c1cc(=O)c2cc(Cl)ccc2[nH]1	1.03
O=C1CC(c2ccccc2)Oc2ccccc21 (stereo not given)	0.97
CC1(C)S[C@@H]2[C@H](NC(=O)[C@H](NC(=O)N3CCNC3=O)c3ccccc3)C(=O)N2C1C(=O)O (stereo not given in full)	1.04
O=C1C[C@@H](c2ccccc2)Oc2cc(O)cc(O)c21	0.958
CC(=O)O[C@H]1C(=O)[C@@]2(C)C([C@H](OC(=O)c3ccccc3)[C@]3(O)C[C@H](OC(=O)[C@H](O)[C@@H](NC(=O)c4ccccc4)c4ccccc4)C(C)=C1C3(C)C)[C@]1(OC(C)=O)CO[C@@H]1C[C@@H]2O (stereo not given in full)	1.05
COc1ccc2c(c1)[C@@]1(C)CCC(=O)C[C@H]1CC2	0.969
